# System: His6-SAV4189 (Streptomyces avermitilis), ORF:1042fb45
# Sequence: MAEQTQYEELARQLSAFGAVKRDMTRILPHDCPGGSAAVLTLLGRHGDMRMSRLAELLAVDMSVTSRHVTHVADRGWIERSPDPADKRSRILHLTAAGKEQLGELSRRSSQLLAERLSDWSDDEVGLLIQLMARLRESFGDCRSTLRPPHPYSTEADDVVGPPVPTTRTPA
# test.name: EMSA
# run.conditions: EMSA as in Luo et al. 2014 (buffer not given), 0.15-0.3 nM DIG probe; footprinting 400 ng probe in 25 ul, 30 min at 25 C
metric: binding

1. TTGATGACCTCGACCATGTGCACCGGGATACGGATGGTGCGGGCCTGGTCGGCCATGGCGCGGGTGATCGCCTGACGGATCCACCAGGTGGCGTACGTGGAGAACTTGTAGCCCTTGG (double strand) [hrdB] ... no binding
2. GACGACTCATATGCGGCAGGCCCTCCCCAGGACGTCGACAGCCGAAAGGCCTTTGGTTGTCCCCACAACCAGTTGTGACGAGACGACTCTATCCAGCAATCGCCCTCCCGCATATCCACTCGTCAAAGGCAACCCTCTCGGGCCATCTGTGCAGGTCAAGTGACCGGAGGGTAGCTAAGACCGTACCGCGCGGCAGTGCCCGAGCGGTGCGGCCTTGGCAACGTTGATC (double strand) [savR1p] ... no binding
3. CGTGTTCACTTCAGAAACCTCCCTGACGAGGCCGCGACGTTGCGGCCGAGGTGGCTGGAAGTCAACTCGGCCACACGTGCGACGTCAAGAAGTAAATACTTAACGAGATGGCAACGGTGCCATGCGTTCTCTAAGTGAAGGCAGGGGTGGCCGCGGAAAGCGTGCCATCCAAAAGGGTCGAATCGCCCATCTCGCTCAACGCGAGAGCGAGCGCTCCGAGCACCTCGGCGCGGCCCCCAAGTGCCCCTGGAAGCACCGAGAGTTGAC (double strand) [xylFp] ... no binding
4. CATCACACCTCCCGTATTCGTTGCTTAGGGCAACCATAGGAAAGTTGGTTGCCGCAGGCAAACTAAATAGGGTCTTCAGGGATAAAAACTTGGCAAAGGCAAGTATTGGCAGGCGTAAAGCCGCAGGTGGGGAGGTCAGGAGCGGTCG (double strand) [4189p] ... binds
5. AATTGCTGGCCGAAGCCCGCGCGGGTGTGCAGGTCTGAAACCGCCGGGGGTGAGGTTAGGGGGGTGGGAAAACCTAGGGGTTGGTCCCCGGGGTGGCGCCGGATAGTGTCGAAACGGCTGAAACAGCATTACTGGAGCGGTTGAGAAAAGCAATCCCAGATTCTGTGCCAACGCGGGGAGAACGAGTGGAACTGGCGGATTCCGGCGACCTTTTGGAAATATTCGAGCGTACCGAGGAAATGGCGCGGCTCGCGCATGTGCTGGCGAGTGCCGGACAGGGCGAAGGCGGTGTGGTCCTCG (double strand) [olmRIIp] ... binds
6. TCCGGACTTGACTGATCTCGACAGTACTTGGCGCACTTGGCCCACTTGGGATCATTGCGGCGGTTGTTACCGCCCGTAAAGCACCATAAGCGCAGCGGGCGGGAGTTCAAACCCGATCAGCTTGGATAAGGTAAGCCTTACCTGTCAACGATCGTGAAGTCGGTGGTCCCCGCATGCCCTCGCCCGTCGCGGATGCCTACGCAAGGCTGACCGA (double strand) [2073p] ... binds

* * *

# System: His6-SAV4189 (Streptomyces avermitilis), ORF:1042fb45
# Sequence: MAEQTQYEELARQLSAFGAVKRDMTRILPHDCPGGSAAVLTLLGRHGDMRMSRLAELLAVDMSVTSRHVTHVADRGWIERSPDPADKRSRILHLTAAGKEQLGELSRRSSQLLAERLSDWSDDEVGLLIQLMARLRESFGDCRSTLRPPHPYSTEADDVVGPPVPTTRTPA
# test.name: EMSA
# run.conditions: EMSA as in Luo et al. 2014 (buffer not given), 0.15-0.3 nM DIG probe; footprinting 400 ng probe in 25 ul, 30 min at 25 C
metric: binding

1) TGACCCCTCCCGCCACTTCCCCCGGCACTTTCCATCGCTTCTCGCCGTGAATTGCAGAGATTCCCCACACACTTATCCCGTTATTAATTCAGAACAGCTTCCCGCATTCTTCTGCCCGCTTTCTTTCGTGCTAAACGCAAAGATTTCGCGAACACCAACCGGCTTAATTCGGGCAGGTCCCGCACGGGTCGTCCACTTGTGATCGACTCCACATCGCACCCCTTTCCTCCCGTATTTTCCGGACAAAATGGGGGTTATCGACGC (double strand) [ectAp] ... binds
2) GACTGCCGGAACTCCATGCGCTGTGCCCTCCGGTTCGTGGTGTTACTTGGTTTTACCAAGTCAGAGCTTGGAAAGTCCAACAACATGTCTAGACTGCGTCGCATGCCACCTCGCCGAAGCTACGACCAGTACTGTTCCGCGGCCCGAGCCCTCGACGCCGTCGGTGACCGCTGGACCCTCCTGATCGTCCG (double strand) [aspB1p] ... binds
3) TCATGGGATCTCCGGTGCCGAAGAGGGGACGAGAGCCACTCGGATTTTCTATGGTTAGGCTTACCTAAGTCAACGGGTTCCCGACATCCCGTCGGTAAAATCGTACCCCCGATTCCGATCAAGCCCACAGGAAAAGCCCGCCCCCCGAAGGGAGCGGGCTTTCGCGCGGCGGGCGGGACTACGGCAGCGTCAGGATGTCCGCCCCGCTGTCCGT (double strand) [hmuOp] ... binds
